Biological target: D4 receptors from human (Homo sapiens)
Sequence (P21917 whole entry): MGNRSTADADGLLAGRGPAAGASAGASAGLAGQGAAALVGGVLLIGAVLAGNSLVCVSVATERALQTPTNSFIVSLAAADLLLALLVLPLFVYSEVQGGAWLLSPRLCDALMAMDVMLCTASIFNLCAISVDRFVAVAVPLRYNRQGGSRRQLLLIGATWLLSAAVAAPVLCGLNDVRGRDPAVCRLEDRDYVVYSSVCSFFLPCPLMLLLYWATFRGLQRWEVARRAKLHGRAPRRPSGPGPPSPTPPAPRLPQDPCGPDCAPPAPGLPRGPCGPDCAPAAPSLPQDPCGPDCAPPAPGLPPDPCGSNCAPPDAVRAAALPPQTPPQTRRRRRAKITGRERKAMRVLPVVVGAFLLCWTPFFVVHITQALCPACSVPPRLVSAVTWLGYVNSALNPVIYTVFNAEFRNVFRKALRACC
Test: D4 receptor binding assay (3H-YM 09151-2 displacement)
Conditions: COS cells containing recombinantly produced human D4 receptors; 0.5 nM 3H-YM 09151-2
observation_type: Ki (nM)
Give bare numbers, in nM.

Check out these entries, answers already filled in.
Fc1cnc(N2CCN(CCCCNc3nc4ccccc4s3)CC2)nc1    6
Cl.c1ccc(N2CCN(CCNc3nc4ccccc4o3)CC2)nc1 [Compound 3, hydrochloride]    11
Br.Cn1c(NCCN2CCN(c3cccc(C(F)(F)F)c3)CC2)nc2ccccc21 [Compound 1, hydrobromide]    3

Now turn to the next compound.
Lookup: Consider the compound COc1ccccc1N1CCN(CCNc2nc3ccc(F)cc3s2)CC1 [Compound 2, difumarate] and give its measured Ki.
Found: 1

The values you see were collected from patent US6432958B1.
